target desc: TDP-43 (Homo sapiens, UniProt Q13148 1-414)
Sequence (Q13148 whole entry): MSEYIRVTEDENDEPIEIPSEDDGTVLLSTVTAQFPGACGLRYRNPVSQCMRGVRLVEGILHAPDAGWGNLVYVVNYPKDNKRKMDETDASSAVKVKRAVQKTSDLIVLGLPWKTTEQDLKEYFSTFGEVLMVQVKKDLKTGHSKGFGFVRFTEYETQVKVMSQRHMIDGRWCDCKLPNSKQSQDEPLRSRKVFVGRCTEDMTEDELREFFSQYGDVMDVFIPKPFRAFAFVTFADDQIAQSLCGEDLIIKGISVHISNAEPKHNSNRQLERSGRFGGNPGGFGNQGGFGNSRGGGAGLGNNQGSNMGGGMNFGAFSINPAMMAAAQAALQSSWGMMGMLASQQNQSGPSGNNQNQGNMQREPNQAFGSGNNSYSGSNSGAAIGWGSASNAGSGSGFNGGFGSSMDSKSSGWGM
measurement protocol: RNA Bind-n-Seq with designed 260-mer pool; 25 mM Tris-HCl, 150 mM KCl, 3 mM MgCl2, BSA (printed 500 mg/mL), 20 units/mL SUPERase IN; pH not stated; 500 nM RNA pool, 1 h, 4 C; TDP-43 5, 50, 500 nM; high values mean tight binding
applied conditions: protein: recombinant; tags: SBP (GST cleaved off with PreScission; pGEX-GST-SBP)
In all, about 9,900 sequences were measured (“r (bound/input frequency ratio)”: median about 0.7, highest 2% from about 6.5 on). What follows is part of a selection rich in the highest values, with near analogues and random picks from the rest.
property label: binding signal

What binding signal value was documented for this binder, ENSMUSG00000029028.117|Lrrc47 (ssRNA) RNA: GGGAGUUCUACAGUCCGACGAUCGCUUCGAUAUCCGCAUGCUAGCUCCAAUGUGACUCUCCUGUCUCCUGUCCUCAUGGAUCACUCAGUAACUGCUGGGGAUGUUCUGAAUCAUGUGGCCUGUGGCCGUGCUGGAGAGUCAGGUUGAACGCAGGCAUUCUAUUGAACAGUAUUUAUUUUUCUACAACAUGUUAAUAGAAUUUUUUUUUAAAUCAGCUGUGCAUAGACAGUUGAGAACAUCAUGUUGUGAGUGUAAUCUUCUUAGAGCUUGUUUCCAGGCACCGUGCUGCCGCCAUGCUCCCAGCUCUUGCGGUCGCACUAGUGUGGAAUUCUCGGGUGUCAAGG ? 0.231 R (bound/input frequency ratio)

Next binder: ENSMUSG00000028439.343|Fam219a (ssRNA) RNA: GGGAGUUCUACAGUCCGACGAUCGCUUCGAUAUCCGCAUGCUACCAGUUCGCAUCCCCACCACUCAUCAUCUGGGCCCCAACGCUAGAACUCCCCCCACCGCAUCCCCACUGGGCUCUUUGACUCACCCUUCUAGAACAUGGGUGCCUCCUCUCUUUAGACUGCUGCCUUUGCCUCUGACUUCCUGUGGGAUUGAGAGCCAAGGGCCAGUGCCCUUGUGAGCGCACUAGUUCCGAAGCAGGCAAGGGCAUUAGGUGGUAUAUACAUAGCGGGUAGGGGUAGGAAGCUGGCAGCCUGCAGCUUCCUCUUGCGGUCGCACUAGUGUGGAAUUCUCGGGUGUCAAGG 0.735 R (bound/input frequency ratio)
